# ASSAY_TARGET: Cystic fibrosis transmembrane conductance regulator (Homo sapiens, UniProt P13569, H148Q)
# Sequence (P13569 whole entry, looked up, stated change not applied): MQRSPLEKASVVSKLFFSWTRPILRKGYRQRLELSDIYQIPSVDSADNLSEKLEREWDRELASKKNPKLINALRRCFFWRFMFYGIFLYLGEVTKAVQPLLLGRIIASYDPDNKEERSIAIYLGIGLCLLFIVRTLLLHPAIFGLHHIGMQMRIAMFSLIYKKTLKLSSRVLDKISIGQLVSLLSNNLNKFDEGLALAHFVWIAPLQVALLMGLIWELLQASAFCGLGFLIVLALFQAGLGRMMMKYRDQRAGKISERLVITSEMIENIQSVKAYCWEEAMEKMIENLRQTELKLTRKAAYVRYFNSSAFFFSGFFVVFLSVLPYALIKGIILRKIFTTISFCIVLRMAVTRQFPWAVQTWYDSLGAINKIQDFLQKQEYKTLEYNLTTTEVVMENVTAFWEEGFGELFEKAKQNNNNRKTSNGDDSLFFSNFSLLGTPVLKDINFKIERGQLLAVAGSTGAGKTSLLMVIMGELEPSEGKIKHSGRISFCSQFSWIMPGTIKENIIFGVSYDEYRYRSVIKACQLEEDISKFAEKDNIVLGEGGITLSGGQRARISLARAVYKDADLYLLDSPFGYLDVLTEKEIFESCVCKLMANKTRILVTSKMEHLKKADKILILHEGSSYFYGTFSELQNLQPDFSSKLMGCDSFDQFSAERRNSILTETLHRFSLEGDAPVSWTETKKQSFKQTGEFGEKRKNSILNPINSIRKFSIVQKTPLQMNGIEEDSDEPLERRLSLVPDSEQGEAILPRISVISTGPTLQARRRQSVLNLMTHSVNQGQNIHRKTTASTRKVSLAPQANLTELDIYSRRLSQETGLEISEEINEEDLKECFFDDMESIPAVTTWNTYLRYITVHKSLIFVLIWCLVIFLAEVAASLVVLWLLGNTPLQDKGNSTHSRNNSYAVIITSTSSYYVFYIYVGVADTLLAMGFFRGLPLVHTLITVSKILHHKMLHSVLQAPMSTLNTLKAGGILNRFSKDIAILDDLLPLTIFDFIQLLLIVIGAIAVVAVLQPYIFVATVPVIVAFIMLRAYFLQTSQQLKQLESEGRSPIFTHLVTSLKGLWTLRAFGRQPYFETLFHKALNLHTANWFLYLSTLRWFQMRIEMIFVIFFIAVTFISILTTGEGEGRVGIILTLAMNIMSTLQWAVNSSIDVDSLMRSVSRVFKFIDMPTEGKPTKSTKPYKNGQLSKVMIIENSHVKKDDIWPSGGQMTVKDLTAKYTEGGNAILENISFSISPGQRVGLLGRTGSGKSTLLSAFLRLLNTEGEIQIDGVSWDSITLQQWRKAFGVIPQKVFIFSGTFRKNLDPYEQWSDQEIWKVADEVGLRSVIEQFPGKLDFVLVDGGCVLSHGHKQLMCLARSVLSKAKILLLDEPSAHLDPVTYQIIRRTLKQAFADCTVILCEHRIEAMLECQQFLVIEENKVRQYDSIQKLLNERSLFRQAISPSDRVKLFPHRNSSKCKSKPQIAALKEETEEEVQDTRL
# TEST_DETAILS: Activation of human CFTR expressed in FRT cells co-expressing YFP H148Q mutant assessed as increase in forskolin-stimulated iodide influx measured after 10 mins by fluorescence assay
# Type: cell-based
# REPORTED_CONDITIONS: read-out: EC50

MOLECULE	ASSAY_TARGET	EC50
Nc1ccc(C(=O)O)cc1-c1nc2ccccc2n(Cc2ccccc2)c1=O	Cystic fibrosis transmembrane conductance regulator (Homo sapiens, UniProt P13569, H148Q)	> 10 µM
Nc1ccc([N+](=O)[O-])cc1-c1nc2cccc3c2n(c1=O)C(c1ccccc1)CO3 (stereo not given)	Cystic fibrosis transmembrane conductance regulator (Homo sapiens, UniProt P13569, H148Q)	> 10 µM
O=c1[nH]c2ccccc2nc1-c1cccc([N+](=O)[O-])c1	Cystic fibrosis transmembrane conductance regulator (Homo sapiens, UniProt P13569, H148Q)	> 10 µM
Fc1ccc2nc3n(Cc4ccccc4)c4ccc(C(F)(F)F)cc4nc-3c2c1	Cystic fibrosis transmembrane conductance regulator (Homo sapiens, UniProt P13569, H148Q)	> 10 µM
O=c1c(-c2cccc([N+](=O)[O-])c2)nc2cc(Cl)c(Cl)cc2n1Cc1ccccc1	Cystic fibrosis transmembrane conductance regulator (Homo sapiens, UniProt P13569, H148Q)	> 10 µM
O=c1c(-c2cccc([N+](=O)[O-])c2)nc2cc(F)c(F)cc2n1Cc1ccccc1	Cystic fibrosis transmembrane conductance regulator (Homo sapiens, UniProt P13569, H148Q)	> 10 µM
O=C(O)c1ccc([N+](=O)[O-])c(-c2nc3ccccc3n(Cc3ccccc3)c2=O)c1	Cystic fibrosis transmembrane conductance regulator (Homo sapiens, UniProt P13569, H148Q)	> 10 µM
CC(=O)Nc1ccc([N+](=O)[O-])cc1-c1nc2cccc3c2n(c1=O)CCO3	Cystic fibrosis transmembrane conductance regulator (Homo sapiens, UniProt P13569, H148Q)	0.82 µM
O=c1c(-c2cccc([N+](=O)[O-])c2)nc2ccccc2n1Cc1cccs1	Cystic fibrosis transmembrane conductance regulator (Homo sapiens, UniProt P13569, H148Q)	0.01 µM
Cc1cc2nc(-c3cccc([N+](=O)[O-])c3)c(=O)n(Cc3ccccc3)c2cc1C	Cystic fibrosis transmembrane conductance regulator (Homo sapiens, UniProt P13569, H148Q)	> 10 µM
Cc1cccc2nc(-c3cccc([N+](=O)[O-])c3)c(=O)n(Cc3ccccc3)c12	Cystic fibrosis transmembrane conductance regulator (Homo sapiens, UniProt P13569, H148Q)	> 10 µM
O=[N+]([O-])c1ccc2nc3n(Cc4ccccc4)c4ccc(C(F)(F)F)cc4nc-3c2c1	Cystic fibrosis transmembrane conductance regulator (Homo sapiens, UniProt P13569, H148Q)	> 10 µM
Cn1c(=O)c(-c2cccc([N+](=O)[O-])c2)nc2ccccc21	Cystic fibrosis transmembrane conductance regulator (Homo sapiens, UniProt P13569, H148Q)	> 10 µM
COC(=O)c1ccc([N+](=O)[O-])c(-c2nc3ccccc3n(Cc3ccccc3)c2=O)c1	Cystic fibrosis transmembrane conductance regulator (Homo sapiens, UniProt P13569, H148Q)	9.9 µM
N#Cc1cccc(-c2nc3ccccc3n(Cc3ccccc3)c2=O)c1	Cystic fibrosis transmembrane conductance regulator (Homo sapiens, UniProt P13569, H148Q)	1 µM

* * *

# ASSAY_TARGET: Cystic fibrosis transmembrane conductance regulator (Homo sapiens, UniProt P13569)
# Sequence (P13569 whole entry): as the sequence (P13569 whole entry, looked up, stated change not applied) above
# TEST_DETAILS: Activation of human CFTR expressed in forskolin-stimulated basolateral membrane permeabilized FRT cells assessed as increase in short-circuit current amplitude after 30 mins by voltage clamp method
RESULT_TYPE: EC50 (nM)

STRUCTURE_AS_SMILES	RESULT_TYPE	QUANTITATIVE_RESULT
O=c1c(-c2cccc([N+](=O)[O-])c2)nc2ccccc2n1Cc1cccs1	EC50	70
